# Tested on: COLO 205
# assay.remarks: NCI tumour cell line growth inhibition, 48 h
Activity calls are given as the source filed them. No stated cut-off is given here; in the data, active = GI50 up to about 1.1 µM and inactive = higher.
Please state which outcome applies, choosing from active, inactive

COC(C/C(=C/CO[Si](C(C)C)(C(C)C)C(C)C)C(=O)Nc1ccccc1I)OC; inactive
N#Cc1c(-c2ccc(Cl)c(Cl)c2)c(-c2ccc(Cl)c(Cl)c2)nn(CC(=O)O)c1=O; inactive
O=C(CCCN1CCC2(CC1)CC(=O)N(N1CCOCC1)C2=O)c1ccc(F)cc1; inactive

Each compound tested received a call. Report the one for "Cn1c(-c2ccccc2)c2cc3nc4ccccc4nc3cc2c1-c1ccccc1" .
inactive

Each compound tested received a call. Report the one for "CCOC(=O)c1c(N)n(-c2ccccc2)c(=O)n(-c2ccccc2)c1=O" .
inactive

----------
# Test system: OVCAR-3
# assay.remarks: NCI tumour cell line growth inhibition, 48 h
Active and inactive are the calls of the source. Cut-off read from the data, not from the text of the source: active = GI50 up to about 1.1 µM and inactive = higher.
Please state which outcome applies, choosing from YES = active, NO = inactive

Nc1nc(N)c2cc(CNc3ccc(C(=O)NC(CC(=O)O)C(=O)O)c(Cl)c3)ccc2n1 (stereo unspecified); YES
COc1cc2c3c(cc(Cl)nc3c1OC)C(O)(CC(=O)c1ccccc1)C(=O)N2 (stereo unspecified); NO
COC(=O)Cc1cc2c(cc1C(=O)c1ccc(N)cc1)OCO2; YES
CCOP(=O)(OCC)C(F)(F)Cc1cnc(C)c2c1COC(C)(C)O2; NO
Oc1ccccc1/C=C/c1csnn1; NO

Read the next record carefully.
Each compound tested received a call. Report the one for "COc1ccc(C2=C(N)c3ccccc3C2=O)cc1" .
NO

----------
# Test system: PC-3
# assay.remarks: NCI tumour cell line growth inhibition, 48 h
The source made the active and inactive calls. Cut-off read from the data, not from the text of the source: active = GI50 up to about 1.1 µM and inactive = higher.
measure: GI50

Cn1c(=O)c2nc(CCCc3ccc([N+](=O)[O-])cc3)[nH]c2n(C)c1=O; > 100 µM (inactive)
CC(=O)N1C(C(=O)NC2CCCCC2)CSC1c1ccccc1 (stereo unspecified); > 100 µM (inactive)
CCOP(=O)(O)C(C)(C)NC; > 100 µM (inactive)
Cc1c(-c2c(C)c3ccccc3n2S(=O)(=O)c2ccccc2)n(S(=O)(=O)c2ccccc2)c2ccccc12; > 37.1 µM (inactive)
COc1ccc(P2(=S)Oc3ccc(C(c4ccccc4)(c4ccccc4)c4ccccc4)cc3O2)cc1 (stereo unspecified); 13.9 µM (inactive)
CCc1nc(N)nc(N)c1-c1ccc2nn(-c3ccccc3)[n+]([O-])c2c1; 1.23 µM (inactive)
N#Cc1nc(-c2cccnc2)oc1N; > 100 µM (inactive)
OCCn1cnc2c(SCc3ccccc3)ncnc21; 61 µM (inactive)
CN(C)Cc1cc(C(=O)/C=C/c2ccc(Br)cc2)cc(CN(C)C)c1O; 1.67 µM (inactive)
c1ccc2c(c1)CN1CCCC1CN2 (stereo unspecified); > 100 µM (inactive)

Here's the next entry for you.
# query: GI50 | item "COc1cc(-c2nc(N)c(C#N)c3c2CCS(=O)(=O)c2ccc(C)cc2-3)cc(OC)c1OC" | system: PC-3
> 100 µM (inactive)

----------
Each record here notes measured GI50.
# Tested on: IGROV-1
# assay.remarks: NCI tumour cell line growth inhibition, 48 h
Active and inactive are the calls of the source. Rule as the data show it: active = GI50 up to about 1.1 µM and inactive = higher.

For orientation, consider the following solved cases.
O=S(=O)(c1cc(Cl)ccc1Cl)n1ccnc1; 41.5 µM (inactive)
SC1=NC2=C(CSC/C2=C\c2ccc(Cl)cc2)C(c2ccc(Cl)cc2)N1 (stereo not given); 51.8 µM (inactive)
COc1cc(C2=C(C)[C@@H]3CN(CC=C3c3ccc(Cl)cc3)C2)c(S(=O)(=O)O)cc1OC; > 100 µM (inactive)
COc1ccc(/N=N/c2c(-c3ccccc3)nn(C(=O)CC(=O)Nc3ccc(OC)cc3)c2-c2ccccc2)cc1; 39.9 µM (inactive)
COc1cc(NS(C)(=O)=O)ccc1Nc1cc(C)nc2ccc3[nH]ccc3c12; > 100 µM (inactive)

Fill blank: measured GI50 of the molecule "Cc1ncc(CCl)c(CCl)c1O" is ____.
> 100 µM (inactive)

Fill blank: measured GI50 of the molecule NC(Cc1ccc(S(=O)(=O)O)cc1)C(=O)NC(Cc1ccc(S(=O)(=O)O)cc1)C(=O)NC(Cc1ccc(S(=O)(=O)O)cc1)C(=O)O (stereo not given) is ____.
> 100 µM (inactive)

Fill blank: measured GI50 of the molecule "CCCCCC(O)(CCCCC)CCCCCCCCC1=C(O)C(=O)c2ccc(=O)[nH]c2C1=O" is ____.
5.53 µM (inactive)

Fill blank: measured GI50 of the molecule C/C=C/C=C\C1OC(O)([C@H](CC)C(=O)NC/C=C/C=C(\C)[C@H](OC)C(C)C2OC(\C=C/C=C/C=C(\C)C(=O)c3c(O)ccn(C)c3=O)[C@H](O)[C@@H]2O)C(O)C(O)C1(C)C (stereo not given in full) is ____.
82 µM (inactive)

Fill blank: measured GI50 of the molecule "c1ccc2c(c1)nc1n2CNC1" is ____.
> 100 µM (inactive)

Fill blank: measured GI50 of the molecule NNC(=O)C(=O)N/N=C1\CCC(=O)CC1C(=O)CCC(=O)Nc1ccc(Cl)cc1 (stereo not given) is ____.
> 100 µM (inactive)
